# assay target: T1, cynomolgus monkey PILRA extracellular domain (recombinant) (cynomolgus monkey)
# T1 construct: also called cynoPILRA; Cyno PILRA
# T1 sequence (chain, as listed by the source limits assumed): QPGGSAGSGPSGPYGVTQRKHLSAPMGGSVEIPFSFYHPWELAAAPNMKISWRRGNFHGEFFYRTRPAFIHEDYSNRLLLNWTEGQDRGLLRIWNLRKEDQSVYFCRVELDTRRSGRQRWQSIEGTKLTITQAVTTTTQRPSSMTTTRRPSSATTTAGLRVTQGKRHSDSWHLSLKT
# method notes: SPR
assay metric: pKd
pKd field: float, defined as -log10 of concentration (mol/L).

Solved entries:
| binder | observed |
| --- | --- |
| Anti-PILRA antibody clone 15 (antibody, V domains shown, Humanized; also called Ab.15) VH: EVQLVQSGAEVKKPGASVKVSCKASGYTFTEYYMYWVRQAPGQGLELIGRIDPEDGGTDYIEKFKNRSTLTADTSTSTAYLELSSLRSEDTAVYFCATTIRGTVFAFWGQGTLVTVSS VL: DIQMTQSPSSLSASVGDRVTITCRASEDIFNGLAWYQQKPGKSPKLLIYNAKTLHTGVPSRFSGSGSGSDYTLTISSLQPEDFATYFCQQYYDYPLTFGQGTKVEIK | 9.14 |
| Anti-PILRA antibody clone 35 (antibody, V domains shown, Humanized; also called Ab.35) VH: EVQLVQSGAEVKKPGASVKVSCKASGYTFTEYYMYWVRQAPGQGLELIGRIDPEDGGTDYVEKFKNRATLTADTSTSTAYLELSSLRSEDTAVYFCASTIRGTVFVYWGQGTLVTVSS VL: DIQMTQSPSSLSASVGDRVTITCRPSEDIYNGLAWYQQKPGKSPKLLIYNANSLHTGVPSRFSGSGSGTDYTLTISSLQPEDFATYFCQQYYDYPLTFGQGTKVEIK | 8.28 |
| Anti-PILRA antibody clone 12 (antibody, V domains shown, Humanized; also called Ab.12) VH: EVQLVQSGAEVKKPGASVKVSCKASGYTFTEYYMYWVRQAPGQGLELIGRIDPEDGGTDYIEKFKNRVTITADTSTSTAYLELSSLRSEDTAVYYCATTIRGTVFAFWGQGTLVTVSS VL: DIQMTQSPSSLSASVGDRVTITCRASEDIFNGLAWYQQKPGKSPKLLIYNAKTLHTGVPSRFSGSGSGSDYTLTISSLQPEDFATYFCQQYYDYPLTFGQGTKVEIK | 8.74 |

In one line, give reported pKd of the entry Anti-PILRA antibody clone 23 (antibody, V domains shown, Humanized; also called Ab.23) VH: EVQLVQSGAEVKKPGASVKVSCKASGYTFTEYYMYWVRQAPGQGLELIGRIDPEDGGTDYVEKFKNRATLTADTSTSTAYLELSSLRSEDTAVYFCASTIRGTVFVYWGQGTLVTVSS VL: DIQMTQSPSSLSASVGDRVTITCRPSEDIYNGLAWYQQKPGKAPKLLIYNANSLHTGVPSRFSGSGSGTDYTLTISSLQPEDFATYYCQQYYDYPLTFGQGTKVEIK .
8.14
